# Test system: MDA-MB-468
# assay text: NCI60 screen cytotoxicity
# Type: cell-based
# condition notes: Homo sapiens, Breast cancer, read-out: Compound B1 EC50
pEC50: −log10 of the molar value.

{"columns": ["line notation", "target system", "pEC50"],
 "data": [
  ["CN(C)CC(=O)NCC(=O)N1C/C(=C\\c2ccc(C#N)cc2)C(=O)/C(=C/c2ccc(C#N)cc2)C1", "MDA-MB-468", "> 6.52"]
]}

---

# System: KLE
# assay text: Cell viability panel, ATPlite 1Step
# Assay type: cell-based
# condition notes: Homo sapiens, Endometrial adenocarcinoma, 72 h exposure, read-out: Compound EC50
pEC50: −log10 of the molar value.

{"columns": ["line notation", "pEC50"],
 "data": [
  ["CN(C)CCCS(=O)(=O)N1C/C(=C\\c2ccc(C#N)cc2)C(=O)/C(=C/c2ccc(C#N)cc2)C1", "≤ 6.00"]
]}
